Parameter IC50: see the listing below.
- targetEntity: KRAS-G12C/SOS1 interaction (Homo sapiens (Human), UniProt Q07889)
- Sequence (Q07889 whole entry, stated change not applied): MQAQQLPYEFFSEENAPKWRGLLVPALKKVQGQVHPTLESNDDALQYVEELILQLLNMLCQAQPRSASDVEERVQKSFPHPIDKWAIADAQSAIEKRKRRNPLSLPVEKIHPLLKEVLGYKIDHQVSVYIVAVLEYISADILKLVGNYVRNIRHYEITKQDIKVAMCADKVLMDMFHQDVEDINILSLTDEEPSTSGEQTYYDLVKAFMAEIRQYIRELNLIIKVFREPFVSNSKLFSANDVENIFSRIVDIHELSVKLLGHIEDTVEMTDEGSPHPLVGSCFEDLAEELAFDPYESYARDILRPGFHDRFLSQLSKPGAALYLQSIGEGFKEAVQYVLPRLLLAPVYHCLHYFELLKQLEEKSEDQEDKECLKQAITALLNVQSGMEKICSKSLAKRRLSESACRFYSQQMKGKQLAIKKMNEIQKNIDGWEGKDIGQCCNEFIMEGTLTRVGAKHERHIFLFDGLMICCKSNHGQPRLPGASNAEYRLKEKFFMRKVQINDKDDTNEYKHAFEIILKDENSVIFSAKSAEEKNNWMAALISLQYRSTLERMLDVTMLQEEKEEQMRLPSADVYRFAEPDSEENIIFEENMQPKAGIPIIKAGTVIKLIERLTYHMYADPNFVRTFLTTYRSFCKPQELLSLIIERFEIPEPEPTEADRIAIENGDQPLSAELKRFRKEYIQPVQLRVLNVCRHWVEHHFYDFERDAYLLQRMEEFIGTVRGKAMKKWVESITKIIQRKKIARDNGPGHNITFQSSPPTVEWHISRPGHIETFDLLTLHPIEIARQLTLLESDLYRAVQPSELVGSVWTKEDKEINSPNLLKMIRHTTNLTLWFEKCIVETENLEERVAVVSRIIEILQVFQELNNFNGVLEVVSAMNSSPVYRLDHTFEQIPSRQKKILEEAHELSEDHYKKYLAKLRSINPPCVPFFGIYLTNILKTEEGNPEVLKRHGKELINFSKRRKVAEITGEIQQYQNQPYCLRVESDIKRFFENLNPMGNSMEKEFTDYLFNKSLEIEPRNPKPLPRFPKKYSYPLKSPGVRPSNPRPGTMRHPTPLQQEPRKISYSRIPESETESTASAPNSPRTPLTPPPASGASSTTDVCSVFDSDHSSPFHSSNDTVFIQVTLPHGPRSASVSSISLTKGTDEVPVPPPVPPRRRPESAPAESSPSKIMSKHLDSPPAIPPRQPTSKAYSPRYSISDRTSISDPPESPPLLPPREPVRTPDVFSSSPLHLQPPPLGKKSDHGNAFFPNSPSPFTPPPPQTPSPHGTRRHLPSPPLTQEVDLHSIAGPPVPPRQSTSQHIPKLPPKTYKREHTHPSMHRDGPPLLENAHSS
- testDescription: Protein-Protein Interaction (PPI) assay, SOS1-KRAS binding assay kit (HTRF)
- testSettings: read-out: PPI Assay IC50

Cc1nc(N[C@H](C)c2cccc(C(F)(F)F)c2C)c2cc(C(=O)N3CC4(COC4)C3)c3ncnn3c2n1    < 100 nM
COCCN1CCN(C(=O)c2cc3c(N[C@H](C)c4cc(N)cc(C(F)(F)F)c4)nc(C)nc3n3ncnc23)CC1    < 100 nM
Cc1nc(N[C@H](C)c2cccc(C(F)F)c2F)c2cc(C(=O)N(C)C)c3nncn3c2n1    < 100 nM
CC(=O)N1CCC(F)(c2cc3c(N[C@H](C)c4cccc(C(F)F)c4F)ncnc3n3nnnc23)CC1    < 100 nM
C[C@@H](Nc1ncnc2c1cc(C1(C(F)F)CC1)c1nncn12)c1cccc(C(F)F)c1F    < 100 nM
Cc1nc(N[C@H](C)c2cccc(C(F)F)c2F)c2cc(C(=O)N3CCOCC3)c3ncnn3c2n1    < 100 nM

**Q:** Can you look up the measured IC50 of C[C@@H](Nc1ncnc2c1cc(C1CCN(S(C)(=O)=O)CC1)c1nnnn12)c1cccc(C(F)F)c1F for me?
**A:** < 100 nM
